Measured inhibition values are reported for all entries that follow.
Target: DNA topoisomerase I (Bos taurus) (UniProt F1MN93)
Sequence (whole entry): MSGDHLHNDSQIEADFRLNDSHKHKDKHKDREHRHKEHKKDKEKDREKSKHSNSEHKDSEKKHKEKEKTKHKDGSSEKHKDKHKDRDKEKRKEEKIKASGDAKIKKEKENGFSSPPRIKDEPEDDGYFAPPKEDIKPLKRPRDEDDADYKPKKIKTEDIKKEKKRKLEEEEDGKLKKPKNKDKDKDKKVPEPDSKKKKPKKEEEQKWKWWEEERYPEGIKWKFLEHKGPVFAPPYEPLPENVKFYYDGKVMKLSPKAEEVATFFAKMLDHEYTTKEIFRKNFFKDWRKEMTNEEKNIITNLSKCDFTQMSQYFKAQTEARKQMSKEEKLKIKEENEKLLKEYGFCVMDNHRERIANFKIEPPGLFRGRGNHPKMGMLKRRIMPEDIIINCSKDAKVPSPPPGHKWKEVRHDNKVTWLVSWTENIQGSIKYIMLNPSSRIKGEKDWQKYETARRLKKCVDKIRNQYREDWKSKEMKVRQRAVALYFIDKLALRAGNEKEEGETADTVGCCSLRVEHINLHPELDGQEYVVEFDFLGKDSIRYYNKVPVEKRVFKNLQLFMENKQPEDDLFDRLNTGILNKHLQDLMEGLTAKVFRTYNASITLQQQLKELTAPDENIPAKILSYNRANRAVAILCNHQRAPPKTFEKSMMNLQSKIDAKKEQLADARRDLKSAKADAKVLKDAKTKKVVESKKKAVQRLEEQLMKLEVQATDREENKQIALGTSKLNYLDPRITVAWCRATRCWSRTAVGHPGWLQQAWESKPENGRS
Assay: Inhibition of calf thymus topoisomerase-1-mediated supercoiled pBR322 DNA relaxation at 50 uM after 30 mins by agarose gel electrophoresis assay relative to control

Worked cases, answers included:
# Smiles Representation, inhibition
measured = [
    ("CC(C)CC(=O)c1c(O)c(C=O)c(O)c(C[C@@]2(C)CC[C@H]3C2=C[C@H](C(C)(C)O)CC[C@H]3C)c1O", "> 90%"),
    ("CC[C@@]1(O)C(=O)OCc2c1cc1n(c2=O)Cc2cc3ccccc3nc2-1", "> 90%"),
]

Give recorded inhibition. C=C1/C=C/[C@H](C(C)(C)O)C[C@H]2[C@@H](CC(C)C)c3c(O)c(C=O)c(O)c(C=O)c3O[C@]2(C)CCC1
60 to 89%

Give reported inhibition value for CC(C)CC(=O)c1c(O)c(C=O)c(O)c(C[C@@]2(C)CC[C@@H]3[C@@H]2[C@H]2[C@@H](CC[C@@]3(C)O)C2(C)C)c1O
> 90%

Provide inhibition value for the following molecule: C=C(C)[C@@H]1C=C2[C@@H](C)CC[C@@H](Cc3c(O)c(C=O)c(O)c(C(=O)CC(C)C)c3O)[C@]2(C)CC1
> 90%

Entry source: ChEMBL document CHEMBL4382271
